The entries below come with measured growth values attached.
- Test system: SK-MEL-28 melanoma
- run_description: NCI-60 one-dose screen, 48 h (100 = growth as untreated, 0 = no growth, -100 = all killed)
- test_settings: 10 µM unless noted
The panel holds about 83,000 compounds, 20% with a hit somewhere; the sample as a whole holds those more often.
Response body: numeric value in %, unit text excluded.

// solved cases for growth follow
{"compound": "O=c1[nH]c(Cl)nc2c1cnn2-c1ccccc1", "target_or_system": "SK-MEL-28 melanoma", "uom": "%", "growth": 70.7}
{"compound": "O=C1CC(C(F)(F)F)=NN1C(=O)c1nn(-c2ccc(Cl)cc2)cc1O", "target_or_system": "SK-MEL-28 melanoma", "uom": "%", "growth": 115}
{"compound": "COc1cc(/C=C2\\CCC/C(=C\\c3ccc(OCC4CO4)c(OC)c3)C2=O)ccc1OCC1CO1 (stereo unspecified)", "target_or_system": "SK-MEL-28 melanoma", "uom": "%", "growth": 14.8}
{"compound": "O[C@@H]1Cc2ccc3ccccc3c2N[C@H](c2ccoc2)C1", "target_or_system": "SK-MEL-28 melanoma", "uom": "%", "growth": 125}
{"compound": "CSC1=Nc2c(c(C)c(-c3ccccc3)n2CCCN2CCCCC2)C2=NC(=O)C[C@H](C)N12", "target_or_system": "SK-MEL-28 melanoma", "uom": "%", "growth": 43.2}

In the following, a different compound is considered.
QUERY: growth for CCCCCCCCCCCCCCCCCC1=NC(C)(C)CN1CCO ?
RESULT: -78

----------
- System: TK-10 renal
- run_description: NCI-60 one-dose screen, 48 h (100 = growth as untreated, 0 = no growth, -100 = all killed)
- test_settings: 10 µM unless noted
This is part of a sample that, as a whole, favours compounds with a hit. Of some 83,000 tested, about 20% had one in any assay.
Attribute: growth
Answer with a number only, understood to be in %.

See these solved cases before continuing.
{"molecule": "CCCCC(C#N)C(N)=O (stereo unspecified)", "target_or_system": "TK-10 renal", "uom": "%", "growth": 107}
{"molecule": "Oc1ccccc1C=Nc1ccccc1N=Cc1ccccc1O.[Cu+2]", "target_or_system": "TK-10 renal", "uom": "%", "growth": 84.1}
{"molecule": "CCCCc1nc(Cl)c(CO)n1Cc1ccc(-c2ccccc2-c2nn[nH]n2)cc1", "target_or_system": "TK-10 renal", "uom": "%", "growth": 108}
{"molecule": "Cc1cc(C)n2nc(SCC(=O)Nc3sc4c(c3C(N)=O)CCC4)nc2n1", "target_or_system": "TK-10 renal", "uom": "%", "growth": 125}
{"molecule": "N=C(N)/N=C(\\CCc1nc2ccccc2[nH]1)c1nc2ccccc2[nH]1", "target_or_system": "TK-10 renal", "uom": "%", "growth": 105}

QUERY: May I ask what growth has been recorded for Cc1scc2c1N(C(=O)CN1CCN(C)CC1)c1ccccc1NC2=O ?
RESULT: 105

----------
- Test system: CAKI-1 renal
- run_description: NCI-60 one-dose screen, 48 h (100 = growth as untreated, 0 = no growth, -100 = all killed)
- test_settings: 10 µM unless noted
The panel holds about 83,000 compounds, 20% with a hit somewhere; the sample as a whole holds those more often.
measured_attribute: growth (%)
Please respond with the number in % and leave the unit unwritten.

QUERY: Fill in the recorded growth for this compound, with CAKI-1 renal as test system: Cc1ccc2c(c1)C(=O)/C(=C/c1ncc([N+](=O)[O-])n1C)O2
RESULT: -32.1

QUERY: Also CO[C@H]1/C=C/O[C@@]2(C)Oc3c(C)c(O)c4c(O)c(c(/C=N/N5C(C)CN(Cc6ccccc6)CC5C)c(O)c4c3C2=O)NC(=O)/C(C)=C\C=C\[C@H](C)[C@H](O)[C@@H](C)[C@@H](O)[C@@H](C)[C@H](OC(C)=O)[C@@H]1C (some centres undefined) , if possible.
RESULT: 117

QUERY: c1coc([C@@H]2C[C@@H]3Cc4ccc5ccccc5c4N2O3)c1 ?
RESULT: 84.7

QUERY: Likewise for Clc1cc(Cl)c(OCC#CI)cc1Cl ?
RESULT: 15.7

QUERY: How about CC1(C)OC(=O)C(=Cc2ccccc2Br)C(=O)O1 ?
RESULT: 94.8

----------
Below, each entry is listed with its recorded growth.
- Test system: M14 melanoma
- run_description: NCI-60 one-dose screen, 48 h (100 = growth as untreated, 0 = no growth, -100 = all killed)
- test_settings: 10 µM unless noted
Compounds without any hit were thinned out: in the full panel of roughly 83,000, 20% have a hit.
Number in %, nothing else.

As a guide, the following entries are already answered.
{"compound": "CC[N+](CC)(CCOCCOCC[N+](CC)(CC)Cc1ccc([N+](=O)[O-])cc1)Cc1ccc([N+](=O)[O-])cc1", "numeric_result": 101}
{"compound": "C=C(C)[C@@H]1C/C=C(/C=O)CC[C@@H]2O[C@@]2(C)CC/C=C(\\C)CC1", "numeric_result": 115}
{"compound": "CCOC(=O)C1=NN(c2ccc(Cl)cc2)C2C3N(c4ccc(Cl)cc4)N=C(C(=O)OCC)N3c3ccccc3N12 (centres undefined)", "numeric_result": 102}

QUERY: What value of measured growth is listed for CC(C)[C@]12O[C@H]1[C@@H]1O[C@]13[C@]1(O[C@H]1C[C@H]1C4=C(CC[C@@]13C)C(=O)OC4)[C@@H]2OC(=O)CN(C)C ?
RESULT: -74.2

----------
- Tested on: NCI-H522 lung
- run_description: NCI-60 one-dose screen, 48 h (100 = growth as untreated, 0 = no growth, -100 = all killed)
- test_settings: 10 µM unless noted
This is part of a sample that, as a whole, favours compounds with a hit. Of some 83,000 tested, about 20% had one in any assay.
In plain terms, low growth, meaning strictly below 30%, gives satisfied, and everything else gives not satisfied.

Study these solved cases before continuing.
{"compound": "Clc1ccc(-c2nc(-c3cccs3)no2)c(Cl)c1", "classification": "not satisfied"}
{"compound": "CC(c1cc(Cl)ccc1O)c1cc(Cl)ccc1O", "classification": "satisfied"}
{"compound": "CC(NC(=O)C(C)Oc1ccc(Cl)cc1Cl)C(=O)O (configuration not stated)", "classification": "not satisfied"}
{"compound": "CN(C)c1nc(N)nc(Cn2c(-c3nonc3N)nc3ccccc32)n1", "classification": "not satisfied"}
{"compound": "CSC1=Nc2c(c(C)c(-c3ccccc3)n2CCCN2CCCCC2)C2=NC(=O)C[C@H](C)N12", "classification": "not satisfied"}

QUERY: Could you please tell me whether growth recorded for Clc1ccc2nc(Cl)c3ccccc3c2c1 is less than 30%?
RESULT: not satisfied

QUERY: Note, next up: Cc1ccsc1/C=C/C1=NCCCN1C
RESULT: not satisfied

QUERY: Try this compound next: CC(C)COCC(CN(Cc1ccccc1)c1ccccc1)N1CCCC1 (configuration not stated)
RESULT: not satisfied

QUERY: Consider next the compound CCN(CC)CCCCNc1c2ccccc2[n+](C)c2c1[nH]c1ccccc12 in the same way.
RESULT: satisfied

QUERY: // next record CCCCSc1cc(C)nc(N)n1
RESULT: not satisfied

QUERY: Similarly, c1ccc(-c2nnc(Nc3nnc(-c4ccccc4)s3)s2)cc1 ?
RESULT: not satisfied

QUERY: Query COc1ccc(/C(=C2\O[C@@H]([C@H](O)CO)[C@H]3OC(C)(C)O[C@@H]23)c2cc(OC)c(OC)c(OC)c2)cc1O next
RESULT: not satisfied

QUERY: How about this compound: CC(=O)c1ccc2c3c(n(C)c2c1)CCCC3
RESULT: not satisfied

QUERY: What do you get for CCCCCCCCCCCCCCCCCC1=NC(C)(C)CN1CCO ?
RESULT: satisfied

QUERY: How about this compound: O=C1NCN(CCO)CN1
RESULT: not satisfied

QUERY: Quick one: C[C@]12CC[C@@H]3c4ccc(O)c([N+](=O)[O-])c4CC[C@H]3[C@@H]1CC[C@@H]2NS(=O)(=O)c1ccc(C(F)(F)F)cc1
RESULT: satisfied

----------
The entries below come with measured growth values attached.
- Test system: CCRF-CEM leukemia
- run_description: NCI-60 one-dose screen, 48 h (100 = growth as untreated, 0 = no growth, -100 = all killed)
- test_settings: 10 µM unless noted
- Experimental: Growth inhibition of the CCRF-CEM human tumor cell line is measured as a screen for anti-cancer activity. Cells are grown in 96 well plates and exposed to the test compound for 48 hours. Compounds are tested at a single concentration, which is 10^-5 M for most compounds. The reported endpoint is percent growth (GI% or GIPRCNT), where numbers from 0 - 100% represent growth inhibition, and numbers from -100% - 0 represent cell death. For example, a value of 40 represents 60% growth inhibition. […]
The panel holds about 83,000 compounds, 20% with a hit somewhere; the sample as a whole holds those more often.
Report the value in % with no unit label.

Examples with answers:
{"entry_smiles": "Cc1cccc(Cl)c1NC(=O)c1ccc2nc(NC(=O)NC3CC(C)(C)NC(C)(C)C3)sc2c1", "uom": "%", "growth": 87.7}
{"entry_smiles": "CCCCCCCCCCCCCCCCCC1=NC(C)(C)CN1CCO", "uom": "%", "growth": -42.9}
{"entry_smiles": "O=C(Nc1ccccc1Cl)c1cnc2ccc(C3CCNCC3)cn12", "uom": "%", "growth": 112}
{"entry_smiles": "O=[P@@]1(c2ccccc2)O[C@H](COCc2ccccc2)[C@@H](OCc2ccccc2)[C@H](OCc2ccccc2)[C@H]1NCc1ccccc1", "uom": "%", "growth": 15.9}
{"entry_smiles": "N=C(N)/N=C(\\CCc1nc2ccccc2[nH]1)c1nc2ccccc2[nH]1", "uom": "%", "growth": 99.5}
{"entry_smiles": "CCN(CC)CCOc1ccccc1-n1c(C)ccc1-c1ccccc1", "uom": "%", "growth": 28.1}
{"entry_smiles": "Cn1cc(-c2csc(-c3cn(C)c4ncccc34)n2)c2cc(F)cnc21", "uom": "%", "growth": 67.4}
{"entry_smiles": "OC(CCC(O)(c1ccccc1)c1ccccc1)(c1ccccc1)c1ccccc1", "uom": "%", "growth": 33.5}

QUERY: Lookup: growth / CCRF-CEM leukemia / COc1ccc(-c2cncn2-c2ccc(-c3nc4cc(OC)c(OC)c(OC)c4s3)cc2)cc1N
RESULT: 45.9

QUERY: Note, next up: COc1ccc(C(=O)Nc2nc(-c3ccc(Cl)cc3)cs2)cc1
RESULT: 104

These data points were gathered from PubChem BioAssay (NCI).
